Assay: Stability of pure lycopene isomers in n-hexane during storage at room temperature
Assay type: physicochemical
Settings: n-hexane, room temperature, absence of light, 1 day
measure: concentration (% of total isomers) x-Z

CC(C)=CCC/C(C)=C/C=C/C(C)=C\C=C\C(C)=C\C=C\C=C(C)\C=C\C=C(C)\C=C\C=C(/C)CCC=C(C)C [9-Z lycopene] | 2.8 % of total isomers
CC(C)=CCC/C(C)=C/C=C/C(C)=C/C=C/C(C)=C\C=C\C=C(C)\C=C\C=C(C)\C=C\C=C(/C)CCC=C(C)C [13-Z lycopene] | 0 % of total isomers
CC(C)=CCC\C(C)=C/C=C/C(C)=C/C=C/C(C)=C/C=C/C=C(C)/C=C/C=C(C)/C=C/C=C(\C)CCC=C(C)C [5-Z lycopene] | 13.5 % of total isomers

Pending molecule:
Given the molecule CC(C)=CCC/C(C)=C/C=C/C(C)=C/C=C/C(C)=C/C=C/C=C(C)/C=C/C=C(C)/C=C/C=C(\C)CCC=C(C)C [all-E lycopene] , what is its reported concentration (% of total isomers) x-Z?
1.5 % of total isomers

// provenance: patent US8216619B2
